Kinetics koff overview
# Target desc: IGF2 (Homo sapiens, UniProt P01344)
# Sequence (P01344 25-91): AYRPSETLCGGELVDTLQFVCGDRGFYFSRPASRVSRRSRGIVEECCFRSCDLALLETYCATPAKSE
# Run description: SPR (Biacore T200) of recombinant IGF2R domain 11 mutants on immobilised biotinylated IGF2
# Format: binding
# Set-up: purchased GroPep
# Experimental parameters: Table 2
// note: answer is a bare numeric in s⁻¹

Query: Field request: Kinetics koff | item: WT: wild-type human IGF2R domain 11 (residues 1511-1650), AB loop YSEKGL (protein) MKSNEHDDCQVTNPSTGHLFDLSSLSGRAGFTAAYSEKGLVYMSICGENENCPPGVGACFGQTRISVGKANKRLRYVDQVLQLVYKDGSPCPSKSGLSYKSVISFVCRPEAGPTNRPMLISLDKQTCTLFFSWHTPLACEQATECSV
Reply: 0.23

// next entry
Query: Field request: Kinetics koff | item: WT + 26C (HI-DMQT): wild-type domain 11 with HI loop DMQT (clone 26C) (protein) MKSNEHDDCQVTNPSTGHLFDLSSLSGRAGFTAAYSEKGLVYMSICGENENCPPGVGACFGQTRISVGKANKRLRYVDQVLQLVYKDGSPCPSKSGLSYKSVISFVCRPEAGPTNRPMLISLDMQTCTLFFSWHTPLACEQATECSV
Reply: 0.24
